B1: unnamed (parent)
chain 1: MSAAILLAPGDVIKRSSEELKQRQIQINLVDWMESEGGKEDKTEPKEESKAEGSKDGEGTQSESGQKEEGGKETKDADVDRRIHTAVGSGSGTKGSGERANENANRGDGKVGGGGGDADAGVGATGTNGGRWVVLTEEIARAIESKYGTKIDVYRDEVPAQIIEVERSLQKELGISREGVAEQTERLRDLRRKEKNGTHAKAVERGGRKQRKKAHGDAQREGVEEEKTSEEPARIGITIEGVMSQKKLLSMIGGVERKMAPIGARESAVMLVSNSIKDVVRATAYFTAPTGDPHWKEVAREASKKKNILAYTSTGGDVKTEFLHLIDHL
chain 2: MAAQNEQRPERIKTTPYLEGDVLSSDSGPLLSVFALQEIMQKVRQVQADYMTATREVDFTVPDVQQILDDIKALAAAQVYKIVKVPSTSFRHIVTQSRDRVLRVDTYYEEMSQVGDVITEDEPEKFYSTIIKKVRFIRGKGSFILHDIPARDHRGMEVAEPEVLGVEFKNVLPVLTAEHRAMIQNALDGSIIENGNVATRDVDVFIGACSEPFYRIYNRFQGYIEAVQLQELRNSIGWLERLGQRKRITYSQEVLTDFRRQDMIWVLALQLPVNPQVVWDVPRSSIANLIMNIATCLPTGEYIAPNPRISSITLTQRITTTGPFAILTGSTPTAQQLNDVRKIYLALMFPGQIILDLKIDPGERMDPAVRMVAGVVGHLLFTAGGRFTNLTQNMARQLDIALNDYLLYMYNTRVQVNYGPTGEPLDFQIGRNQYDCNVFRADFATGTGYNGWATIDVEYRDPAPYVHAQRYIRYCGIDSRELINPTTYGIGMTYHCYNEMLRMLVAAGKDSEAAYFRSMLPFHMVRFARINQIINEDLHSVFSLPDDMFNALLPDLIAGAHQNADPVVLDVSWISLWFAFNRSFEPTHRNEMLEIAPLIESVYASELSVMKVDMRHLSLMQRRFPDVLIQARPSHFWKAVLNDSPEAVKAVMNLSHSHNFINIRDMMRWVLLPSLQPSLKLVLEEEAWAAANDFEDLMLTDQVYMHRDMLPEPRLDDIERFRQEGFYYTNMLEAPPEIDRVVQYTYEIARLQANMGQFRAALRRIMDDDDWIGFGGVLRTVRVKFFDARPPDDILQGLPFSYDTNEKGGLSYATIKYATETTIFYLIYNVEFSNTPDSLVLINPTYTMTKVFINKRIVERVRVGQILAVLNRRFVAYKGKMRIMDITQSLKMGTKLAAPTV

Variants of: B1
Assay method text: coimmunoprecipitation (IP anti-HA MAb), immunoblot gray-value analysis
Conditions used: with partner chain of the complex shown, five experiments, means ± SDs, parent: 100, read off a plot
Give percent of parent for every item shown.

Query string: Suppose we examine the variant chain 1 R281A F286A ; what percent of parent value has been reported?
Result string: 1 % of WT

Query string: One more variant: chain 1 Y285A F286A
Result string: 2 % of WT

Query string: One more variant: chain 1 A282G A284G
Result string: 42 % of WT

Query string: One more variant: chain 1 F286A
Result string: 18 % of WT

Query string: One more variant: chain 1 R281A
Result string: 100 % of WT

Query string: One more variant: chain 1 Y285A
Result string: 7 % of WT
